# assayed system: D(4) dopamine receptor (Homo sapiens, UniProt P21917)
# Sequence (P21917 whole entry): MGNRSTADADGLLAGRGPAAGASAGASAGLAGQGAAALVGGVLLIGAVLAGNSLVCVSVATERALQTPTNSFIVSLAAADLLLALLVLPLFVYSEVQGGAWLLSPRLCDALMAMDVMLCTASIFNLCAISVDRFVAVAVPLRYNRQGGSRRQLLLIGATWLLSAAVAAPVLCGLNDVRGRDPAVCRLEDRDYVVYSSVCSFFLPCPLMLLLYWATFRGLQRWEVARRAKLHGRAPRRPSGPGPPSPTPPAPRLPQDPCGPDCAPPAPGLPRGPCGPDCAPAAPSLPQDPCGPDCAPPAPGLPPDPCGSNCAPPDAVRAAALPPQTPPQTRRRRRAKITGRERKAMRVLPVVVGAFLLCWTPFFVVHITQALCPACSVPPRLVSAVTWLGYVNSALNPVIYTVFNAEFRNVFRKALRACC
# test details: DRUGMATRIX: Dopamine D4.2 radioligand binding (ligand: [3H] Spiperone)
# Type: cell membranes, CHO-K1, Membrane
# condition details: Not Active = under 50% inhibition at 10 µM; read-out: Ki
metric: pKi
The scale used: pKi is minus the common logarithm of the concentration in molar units.

(Q) Record request: pKi value, item OCCN1CCN(CCCN2c3ccccc3Sc3ccc(C(F)(F)F)cc32)CC1 [FLUPHENAZINE]
(A) 5.69

---

# assayed system: Aldo-keto reductase family 1 member B1 (Rattus norvegicus, UniProt P07943); note: in other assays of this panel Not Active means under 50% inhibition at 10 µM
# test details: biochemical
# Assay type: tissue-based, Lens of camera-type eye
# condition details: read-out: IC50
metric: pIC50
The scale used: pIC50 is minus the common logarithm of the concentration in molar units.

- chemical structure: "Cc1cccc(Nc2cc(Cl)nc(SCC(=O)O)n2)c1C"
  assayed system: "Aldo-keto reductase family 1 member B1 (Rattus norvegicus, UniProt P07943)"
  pIC50: 5.55
- chemical structure: "C=C(CC)C(=O)c1ccc(OCC(=O)O)c(Cl)c1Cl"
  assayed system: "Aldo-keto reductase family 1 member B1 (Rattus norvegicus, UniProt P07943)"
  pIC50: 5.94
- chemical structure: "O=C(/C=C/c1ccc(O)c(O)c1)OCCc1ccccc1"
  assayed system: "Aldo-keto reductase family 1 member B1 (Rattus norvegicus, UniProt P07943)"
  pIC50: 5.85

Let's switch to this compound now.
(Q) Please state recorded pIC50 (tested on Aldo-keto reductase family 1 member B1 (Rattus norvegicus, UniProt P07943)) of CC1=C(CC(=O)O)c2cc(F)ccc2/C1=C\c1ccc(S(C)(=O)=O)cc1; note: in other assays of this panel Not Active means under 50% inhibition at 10 µM;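 note: inhibition of aldose reductase enzyme activity, measured with DL-glyceraldehyde as the substrate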
(A) 6.57

---

# assayed system: D(3) dopamine receptor (Homo sapiens)
# Sequence (P35462 whole entry): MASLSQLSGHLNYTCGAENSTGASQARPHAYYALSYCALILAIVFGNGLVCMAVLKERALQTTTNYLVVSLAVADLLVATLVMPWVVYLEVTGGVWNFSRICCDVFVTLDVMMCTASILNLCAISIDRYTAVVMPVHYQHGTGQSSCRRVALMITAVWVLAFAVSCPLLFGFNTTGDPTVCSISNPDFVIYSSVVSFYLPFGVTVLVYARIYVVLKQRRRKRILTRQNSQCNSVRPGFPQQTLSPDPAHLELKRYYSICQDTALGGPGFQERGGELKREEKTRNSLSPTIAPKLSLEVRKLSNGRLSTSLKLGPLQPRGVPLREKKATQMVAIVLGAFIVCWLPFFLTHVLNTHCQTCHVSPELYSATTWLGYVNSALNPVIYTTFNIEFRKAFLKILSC
# test details: DRUGMATRIX: Dopamine D3 radioligand binding (ligand: [3H] Spiperone)
# Type: cell membranes, CHO, Membrane
# condition details: cho; read-out: Ki
metric: Ki (nM)
Expressed in nM, but write only the number.

(Q) Record request: Ki value, item THIMEROSAL
(A) 29

---

# assayed system: Alpha-1B adrenergic receptor (Rattus norvegicus, UniProt P15823)
# Sequence (P15823 whole entry): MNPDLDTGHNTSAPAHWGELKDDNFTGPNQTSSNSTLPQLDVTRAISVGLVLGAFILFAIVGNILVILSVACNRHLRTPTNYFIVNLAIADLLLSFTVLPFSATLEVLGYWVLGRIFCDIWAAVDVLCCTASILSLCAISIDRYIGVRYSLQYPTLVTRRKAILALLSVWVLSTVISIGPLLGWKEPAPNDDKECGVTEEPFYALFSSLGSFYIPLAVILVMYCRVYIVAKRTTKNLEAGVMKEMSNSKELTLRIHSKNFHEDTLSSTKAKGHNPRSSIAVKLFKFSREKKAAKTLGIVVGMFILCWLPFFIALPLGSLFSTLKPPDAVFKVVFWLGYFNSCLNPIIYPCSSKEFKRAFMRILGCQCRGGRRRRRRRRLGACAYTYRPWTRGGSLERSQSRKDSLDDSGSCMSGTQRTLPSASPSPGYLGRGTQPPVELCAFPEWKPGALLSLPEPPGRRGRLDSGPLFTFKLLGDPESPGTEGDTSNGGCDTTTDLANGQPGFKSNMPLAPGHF
# test details: DRUGMATRIX: Alpha-1B adrenergic receptor radioligand binding (ligand: prazosin)
# Assay type: cell membranes, Wistar, Liver, Membrane
# condition details: Not Active = under 50% inhibition at 10 µM
metric: IC50

Worked cases, IC50 given:
- compound: "CO[C@H]1[C@@H](O)[C@H](N)[C@@H](O[C@H]2O[C@H]([C@H](C)N)CC[C@H]2N)[C@H](O)[C@@H]1N(C)C(=O)CN"
  val: "Not Active"
- compound: "O=C(O)Cc1ccc(-c2ccccc2)cc1"
  val: "Not Active"
- compound: "C#C[C@]1(O)CC[C@H]2[C@@H]3CCc4cc(O)ccc4[C@H]3CC[C@@]21C"
  val: "Not Active"
- compound: "CS(=O)(=O)OCCCCOS(C)(=O)=O"
  val: "Not Active"
- compound: "C[C@H](C(=O)O)c1cccc(C(=O)c2ccccc2)c1"
  val: "Not Active"
- compound: "Cc1cnc(C(=O)NCCc2ccc(S(=O)(=O)NC(=O)NC3CCCCC3)cc2)cn1 [GLIPIZIDE]"
  val: "Not Active"
- compound: "O=c1cc(-c2ccccc2)oc2ccc3ccccc3c12"
  val: "Not Active"

(Q) Please state recorded IC50 (tested on Alpha-1B adrenergic receptor (Rattus norvegicus, UniProt P15823)) of Nc1nc2c(c(=O)[nH]1)N(C=O)C(CNc1ccc(C(=O)N[C@@H](CCC(=O)O)C(=O)O)cc1)CN2 (stereo partly drawn)
(A) Not Active
